Target: T1, cell surface plectin on ovarian cancer cells (SKOV3, OVCAR8) (human, UniProt Q15149 1-4684)
T1 construct: whole, on cells; Endogenous plectin mislocalized to the cell surface; also called Plectin-1
T1 sequence (Q15149 whole entry): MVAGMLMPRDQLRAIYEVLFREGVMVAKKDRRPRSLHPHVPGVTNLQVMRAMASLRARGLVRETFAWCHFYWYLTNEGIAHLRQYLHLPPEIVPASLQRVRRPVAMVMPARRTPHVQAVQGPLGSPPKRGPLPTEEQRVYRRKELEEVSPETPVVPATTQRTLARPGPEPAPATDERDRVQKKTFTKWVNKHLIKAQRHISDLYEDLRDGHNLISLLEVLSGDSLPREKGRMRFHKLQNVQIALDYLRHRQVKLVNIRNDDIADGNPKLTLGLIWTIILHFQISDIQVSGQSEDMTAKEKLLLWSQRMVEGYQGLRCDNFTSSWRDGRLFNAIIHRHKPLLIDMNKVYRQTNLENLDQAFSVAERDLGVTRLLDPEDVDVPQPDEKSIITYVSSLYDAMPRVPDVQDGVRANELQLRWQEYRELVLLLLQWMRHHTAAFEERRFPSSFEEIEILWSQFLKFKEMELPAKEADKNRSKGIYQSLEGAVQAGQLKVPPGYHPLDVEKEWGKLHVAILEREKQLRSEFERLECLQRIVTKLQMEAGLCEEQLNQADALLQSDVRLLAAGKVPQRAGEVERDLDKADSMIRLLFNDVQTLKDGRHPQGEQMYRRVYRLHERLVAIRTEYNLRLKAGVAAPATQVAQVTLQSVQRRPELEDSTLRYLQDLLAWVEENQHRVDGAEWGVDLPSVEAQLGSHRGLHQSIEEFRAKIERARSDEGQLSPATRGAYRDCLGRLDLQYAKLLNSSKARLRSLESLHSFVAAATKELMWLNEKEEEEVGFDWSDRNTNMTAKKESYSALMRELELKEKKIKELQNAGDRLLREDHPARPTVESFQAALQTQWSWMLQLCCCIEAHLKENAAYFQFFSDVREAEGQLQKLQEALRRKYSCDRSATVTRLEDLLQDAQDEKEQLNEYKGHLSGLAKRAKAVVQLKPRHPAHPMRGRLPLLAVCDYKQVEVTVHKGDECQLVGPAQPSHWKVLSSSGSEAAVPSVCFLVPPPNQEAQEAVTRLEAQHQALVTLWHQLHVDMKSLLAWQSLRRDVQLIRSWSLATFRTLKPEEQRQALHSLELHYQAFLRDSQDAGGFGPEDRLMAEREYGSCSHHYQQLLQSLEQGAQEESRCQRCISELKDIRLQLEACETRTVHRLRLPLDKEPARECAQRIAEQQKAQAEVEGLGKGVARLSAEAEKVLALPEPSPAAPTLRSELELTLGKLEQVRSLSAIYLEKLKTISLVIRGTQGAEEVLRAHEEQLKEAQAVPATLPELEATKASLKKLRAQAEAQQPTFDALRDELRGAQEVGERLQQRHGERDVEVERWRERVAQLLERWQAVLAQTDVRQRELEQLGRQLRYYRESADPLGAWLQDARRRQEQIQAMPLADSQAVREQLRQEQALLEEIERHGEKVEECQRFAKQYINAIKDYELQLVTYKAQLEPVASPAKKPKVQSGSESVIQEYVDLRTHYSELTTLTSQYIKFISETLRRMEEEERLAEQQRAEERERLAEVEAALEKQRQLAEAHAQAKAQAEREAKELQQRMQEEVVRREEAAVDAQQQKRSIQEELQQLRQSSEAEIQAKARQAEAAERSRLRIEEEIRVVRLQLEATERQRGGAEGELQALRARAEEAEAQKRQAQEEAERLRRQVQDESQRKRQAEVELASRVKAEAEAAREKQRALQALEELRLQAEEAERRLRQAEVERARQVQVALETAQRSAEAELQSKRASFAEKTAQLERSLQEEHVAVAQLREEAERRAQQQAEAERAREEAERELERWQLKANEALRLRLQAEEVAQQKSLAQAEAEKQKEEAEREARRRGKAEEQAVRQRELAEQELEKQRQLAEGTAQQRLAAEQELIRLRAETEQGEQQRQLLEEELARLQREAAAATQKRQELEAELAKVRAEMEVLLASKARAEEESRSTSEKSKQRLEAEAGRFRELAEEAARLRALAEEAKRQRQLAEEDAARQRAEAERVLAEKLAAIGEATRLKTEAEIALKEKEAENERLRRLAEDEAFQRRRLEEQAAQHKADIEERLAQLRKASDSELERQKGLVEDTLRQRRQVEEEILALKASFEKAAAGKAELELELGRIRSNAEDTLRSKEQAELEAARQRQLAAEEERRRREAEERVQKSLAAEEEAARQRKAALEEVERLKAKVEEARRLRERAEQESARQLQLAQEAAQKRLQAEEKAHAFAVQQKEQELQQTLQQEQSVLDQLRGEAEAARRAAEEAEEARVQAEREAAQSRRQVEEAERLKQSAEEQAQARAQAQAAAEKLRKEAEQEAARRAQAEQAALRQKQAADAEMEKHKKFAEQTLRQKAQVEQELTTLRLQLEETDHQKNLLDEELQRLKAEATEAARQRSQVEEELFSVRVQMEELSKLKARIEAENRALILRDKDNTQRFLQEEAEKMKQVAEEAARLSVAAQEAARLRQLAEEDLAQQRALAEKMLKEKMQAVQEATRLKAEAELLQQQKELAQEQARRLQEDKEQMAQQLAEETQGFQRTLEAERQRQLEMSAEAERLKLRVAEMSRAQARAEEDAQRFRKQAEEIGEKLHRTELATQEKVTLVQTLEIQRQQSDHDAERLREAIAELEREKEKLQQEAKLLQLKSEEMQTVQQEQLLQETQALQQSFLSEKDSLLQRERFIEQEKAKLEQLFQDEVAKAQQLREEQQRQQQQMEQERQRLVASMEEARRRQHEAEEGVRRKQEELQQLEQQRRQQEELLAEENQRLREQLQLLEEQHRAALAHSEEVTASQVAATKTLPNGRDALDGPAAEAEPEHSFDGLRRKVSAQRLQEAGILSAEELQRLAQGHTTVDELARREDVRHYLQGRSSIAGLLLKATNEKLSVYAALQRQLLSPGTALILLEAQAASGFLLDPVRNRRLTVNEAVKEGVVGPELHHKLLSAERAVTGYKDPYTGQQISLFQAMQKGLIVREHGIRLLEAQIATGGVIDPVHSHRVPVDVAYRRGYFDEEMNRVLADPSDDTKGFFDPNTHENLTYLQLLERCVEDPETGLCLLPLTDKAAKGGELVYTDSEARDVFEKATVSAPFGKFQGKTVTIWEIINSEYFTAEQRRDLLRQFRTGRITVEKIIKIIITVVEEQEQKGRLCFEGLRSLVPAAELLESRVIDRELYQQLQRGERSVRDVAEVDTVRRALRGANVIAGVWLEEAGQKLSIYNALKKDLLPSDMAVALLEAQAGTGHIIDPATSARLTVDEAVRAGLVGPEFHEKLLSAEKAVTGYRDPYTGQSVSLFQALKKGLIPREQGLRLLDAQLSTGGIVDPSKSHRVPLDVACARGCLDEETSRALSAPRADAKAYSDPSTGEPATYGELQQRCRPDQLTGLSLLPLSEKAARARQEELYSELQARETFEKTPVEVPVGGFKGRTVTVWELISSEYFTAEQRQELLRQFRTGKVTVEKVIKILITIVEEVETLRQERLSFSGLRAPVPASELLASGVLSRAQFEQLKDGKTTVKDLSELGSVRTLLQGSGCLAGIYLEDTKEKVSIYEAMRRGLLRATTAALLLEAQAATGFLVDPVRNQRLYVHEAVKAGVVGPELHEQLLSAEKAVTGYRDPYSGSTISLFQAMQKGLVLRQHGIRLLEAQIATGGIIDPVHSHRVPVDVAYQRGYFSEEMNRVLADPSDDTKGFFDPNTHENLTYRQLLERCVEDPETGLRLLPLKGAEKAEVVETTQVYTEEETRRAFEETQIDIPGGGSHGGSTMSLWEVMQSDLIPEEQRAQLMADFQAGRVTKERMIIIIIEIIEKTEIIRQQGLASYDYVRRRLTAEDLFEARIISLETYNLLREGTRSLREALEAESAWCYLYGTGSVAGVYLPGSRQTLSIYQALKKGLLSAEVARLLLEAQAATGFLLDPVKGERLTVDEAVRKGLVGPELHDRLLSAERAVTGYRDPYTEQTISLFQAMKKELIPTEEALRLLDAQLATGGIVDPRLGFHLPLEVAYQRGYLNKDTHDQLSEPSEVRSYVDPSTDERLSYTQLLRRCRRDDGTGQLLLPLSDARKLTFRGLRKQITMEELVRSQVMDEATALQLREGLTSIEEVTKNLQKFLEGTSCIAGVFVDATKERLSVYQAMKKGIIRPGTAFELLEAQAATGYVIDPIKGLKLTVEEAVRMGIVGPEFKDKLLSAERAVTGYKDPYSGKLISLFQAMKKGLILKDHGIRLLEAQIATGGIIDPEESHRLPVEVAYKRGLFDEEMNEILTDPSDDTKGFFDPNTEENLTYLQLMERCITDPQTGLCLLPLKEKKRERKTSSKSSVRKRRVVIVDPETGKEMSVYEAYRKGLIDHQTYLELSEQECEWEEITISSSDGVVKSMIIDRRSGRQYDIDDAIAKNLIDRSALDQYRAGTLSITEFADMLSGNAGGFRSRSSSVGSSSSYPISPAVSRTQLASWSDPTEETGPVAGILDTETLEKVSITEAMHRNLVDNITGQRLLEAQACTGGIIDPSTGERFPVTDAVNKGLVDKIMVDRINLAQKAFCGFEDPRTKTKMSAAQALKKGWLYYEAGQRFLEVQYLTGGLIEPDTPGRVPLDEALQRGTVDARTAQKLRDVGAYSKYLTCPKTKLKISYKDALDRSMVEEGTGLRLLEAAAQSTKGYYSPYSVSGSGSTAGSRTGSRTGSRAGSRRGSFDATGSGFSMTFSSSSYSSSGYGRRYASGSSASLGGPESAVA
Test Details: cell binding assay on SKOV3 cells; DiR fluorescence; NCP and no-peptide liposome binding subtracted; SKOV3 cells
Protocol: FT 132, SKOV3 and OVCAR8 cells were plated in triplicate in a 96 well black plate at a concentration of 5000 cells per well. After 48 h, liposomes at concentrations ranging from […] were incubated with the three cell lines after washing the wells with PBS buffer for 1 h at 37° C. The cells were later washed with PBS and liposomal DiR intensity was measured using a fluorescent plate reader (FLUOstar omega, BMG Labtech Inc. Cary, NC). […]
pKd: −log10 of the molar value. Where no end group is shown, it is not given here. Side-chain parts run from the residue outwards. The star is where a group is joined. DSPE = CCCCCCCCCCCCCCCCCC(=O)OC[C@H](COP(=O)(O)OCCN*)OC(=O)CCCCCCCCCCCCCCCCC; FAM = 5(6)-carboxyfluorescein

>  <Binder>
KTLLPTPGGSK(FAM)C([maleimide-PEG3400-DSPE])-NH2 (also: displayed on liposomes, Tested only as a multivalent display on liposomes (about 110-120 nm), not as free peptide; also called Plectin Targeted Peptide; PTP-PEG3400-DSPE)

>  <pKd>
9.92

$$$$

The origin of these recorded values is patent US11890352B2.
